Listed sequences paired with reported binding signal
testSystem: OsSMF1 (Oryza sativa, UniProt Q6ZLB0 1-436)
Sequence: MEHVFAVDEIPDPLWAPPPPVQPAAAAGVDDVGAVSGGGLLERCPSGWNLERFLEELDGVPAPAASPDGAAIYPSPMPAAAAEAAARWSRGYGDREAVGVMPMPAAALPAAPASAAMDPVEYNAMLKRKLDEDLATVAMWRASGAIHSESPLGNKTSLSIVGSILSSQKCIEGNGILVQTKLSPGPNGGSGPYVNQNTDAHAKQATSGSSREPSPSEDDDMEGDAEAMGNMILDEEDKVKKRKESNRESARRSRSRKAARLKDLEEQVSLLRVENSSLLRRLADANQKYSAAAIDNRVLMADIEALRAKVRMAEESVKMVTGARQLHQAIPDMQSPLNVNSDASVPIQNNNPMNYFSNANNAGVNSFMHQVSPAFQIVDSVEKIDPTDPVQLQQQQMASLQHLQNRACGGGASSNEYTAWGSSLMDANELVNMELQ
method: protein-binding microarray (RPBM); PBS, 2% BSA, 51.3 ng/ul salmon testes DNA, 50 uM zinc acetate, 200 nM TF, 25 C, 1 h; high values mean tight binding
settings: protein: recombinant; tags: N-terminal polyhistidine and DsRed monomer fusion (pET32a); chain copies: 2; label: CyDye5-dUTP incorporated in the synthesized complementary strand; 3' TTTTT single-stranded linker to array surface; dsDNA, one strand shown
The full ranking holds about 39,000 sequences; the median of “fluorescence intensity (a.u.)” is about 4,300, and the highest 2% start at about 39,000. This is one part of a sample in which the highest values are shown more often than they occur.

{"sequenceInput": "TTAAGGACGATTTTGTAATTCAGCTGACAAGACGAGGGATCGGAGTCACCTAGTGCAG", "binding signal": "4300 fluorescence intensity (a.u.)"}
{"sequenceInput": "TATCATTTGTCAAACACACCCATATCCCATTTGCCAATCACGGAGTCACCTAGTGCAG", "binding signal": "3890 fluorescence intensity (a.u.)"}
{"sequenceInput": "TCCAAATCCTATGAAATTCCTATGGAAATCCACGTTGCATCGGAGTCACCTAGTGCAG", "binding signal": "7670 fluorescence intensity (a.u.)"}
{"sequenceInput": "ATGACGTGACATTGACGTGGCGCTTACGTGGCAATTCGACCGGAGTCACCTAGTGCAG", "binding signal": "25600 fluorescence intensity (a.u.)"}
{"sequenceInput": "AACGTCGGTTCCCAAACATTTGTTTTCCTTACCAATCGGGCGGAGTCACCTAGTGCAG", "binding signal": "3490 fluorescence intensity (a.u.)"}
{"sequenceInput": "TGACTCAGTATCGATCTGACGTGGCGCTTACGTGGCAATTCGGAGTCACCTAGTGCAG", "binding signal": "48000 fluorescence intensity (a.u.)"}
{"sequenceInput": "TCCTTCAAGAATCCTATACTTCTTAAATCAGGAACATAATCGGAGTCACCTAGTGCAG", "binding signal": "8910 fluorescence intensity (a.u.)"}
{"sequenceInput": "TGGCATTGACGTGGCGCTTACGTGGCATTATATCTTGAAACGGAGTCACCTAGTGCAG", "binding signal": "33400 fluorescence intensity (a.u.)"}
{"sequenceInput": "AGTTCATTATCATCATGTAATGAATCATCATGAATCCAAACGGAGTCACCTAGTGCAG", "binding signal": "3280 fluorescence intensity (a.u.)"}
{"sequenceInput": "GATTGAATCATATCGTATCCTTTGAAATTCCTATGGAATGCGGAGTCACCTAGTGCAG", "binding signal": "4120 fluorescence intensity (a.u.)"}
{"sequenceInput": "CGTGCGACCCAGATCTCGCCACGTATGCGCGCGGATCGGCCGGAGTCACCTAGTGCAG", "binding signal": "10800 fluorescence intensity (a.u.)"}
{"sequenceInput": "CCATCTGCGGCGTACTTGCCACTTTTCTTCGATCGGCACCCGGAGTCACCTAGTGCAG", "binding signal": "3550 fluorescence intensity (a.u.)"}

* * *

testSystem: OsSMF1 (Oryza sativa, UniProt Q6ZLB0 1-436)
Sequence: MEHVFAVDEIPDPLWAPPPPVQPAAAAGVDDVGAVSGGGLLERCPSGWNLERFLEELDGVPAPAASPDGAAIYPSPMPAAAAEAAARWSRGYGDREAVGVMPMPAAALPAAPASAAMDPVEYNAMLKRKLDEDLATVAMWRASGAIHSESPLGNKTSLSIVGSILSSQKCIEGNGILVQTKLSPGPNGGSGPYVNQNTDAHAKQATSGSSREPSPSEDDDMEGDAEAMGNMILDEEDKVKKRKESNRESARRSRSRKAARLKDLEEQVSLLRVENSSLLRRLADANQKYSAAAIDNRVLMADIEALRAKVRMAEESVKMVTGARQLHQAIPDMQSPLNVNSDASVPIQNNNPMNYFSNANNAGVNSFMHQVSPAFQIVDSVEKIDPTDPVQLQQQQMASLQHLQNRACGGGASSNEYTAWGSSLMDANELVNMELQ
method: protein-binding microarray (RPBM); PBS, 2% BSA, 51.3 ng/ul salmon testes DNA, 50 uM zinc acetate, 200 nM TF, 25 C, 1 h; high values mean tight binding
settings: protein: recombinant; tags: N-terminal polyhistidine and DsRed monomer fusion (pET32a); chain copies: 2; label: CyDye5-dUTP incorporated in the synthesized complementary strand; 3' TTTTT single-stranded linker to array surface; dsDNA, one strand shown
The full ranking holds about 39,000 sequences; the median of “fluorescence intensity (a.u.)” is about 4,300, and the highest 2% start at about 39,000. The sample holds the highest values, similar sequences and a random draw of the others, so the mix is not that of the screen.
The following sequences are shown together with reported binding signal values.

{"sequenceInput": "ATTTCTAATGCCACGTTAACGCCACGTGGAAAGAAGACCGCGGAGTCACCTAGTGCAG", "binding signal": "17900 fluorescence intensity (a.u.)"}
{"sequenceInput": "AAGAAGTACGTCATATATTCAGTTTTATGTATTATTTTATCGGAGTCACCTAGTGCAG", "binding signal": "3310 fluorescence intensity (a.u.)"}
{"sequenceInput": "GATTCTTCTATGTGGCATGAGGTAACCCTGGGTCGGCTTGCGGAGTCACCTAGTGCAG", "binding signal": "4110 fluorescence intensity (a.u.)"}

* * *

Measured binding signal values are reported for all entries that follow.
testSystem: OsSMF1 (Oryza sativa, UniProt Q6ZLB0 1-436)
Sequence: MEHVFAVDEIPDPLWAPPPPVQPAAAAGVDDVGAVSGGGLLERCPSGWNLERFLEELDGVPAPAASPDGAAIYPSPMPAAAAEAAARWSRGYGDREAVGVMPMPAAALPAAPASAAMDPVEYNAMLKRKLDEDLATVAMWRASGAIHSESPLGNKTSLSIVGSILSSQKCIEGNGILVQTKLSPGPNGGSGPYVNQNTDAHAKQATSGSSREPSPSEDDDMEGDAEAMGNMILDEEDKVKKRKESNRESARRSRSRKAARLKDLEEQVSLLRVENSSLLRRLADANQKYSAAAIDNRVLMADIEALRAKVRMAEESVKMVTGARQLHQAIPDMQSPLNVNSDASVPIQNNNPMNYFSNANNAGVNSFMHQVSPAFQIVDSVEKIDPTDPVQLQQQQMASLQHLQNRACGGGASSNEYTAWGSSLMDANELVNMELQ
method: protein-binding microarray (RPBM); PBS, 2% BSA, 51.3 ng/ul salmon testes DNA, 50 uM zinc acetate, 200 nM TF, 25 C, 1 h; high values mean tight binding
settings: protein: recombinant; tags: N-terminal polyhistidine and DsRed monomer fusion (pET32a); chain copies: 2; label: CyDye5-dUTP incorporated in the synthesized complementary strand; 3' TTTTT single-stranded linker to array surface; dsDNA, one strand shown
Over roughly 39,000 sequences, “fluorescence intensity (a.u.)” has its median near 4,300; the highest 2% begin near 39,000. The sample holds the highest values, similar sequences and a random draw of the others, so the mix is not that of the screen.
recordedMetric: binding signal

{"sequenceInput": "TAAATAATTGCCATTGCCATGCTGCCACGTGTCATGGGACCGGAGTCACCTAGTGCAG", "recordedMetric": "binding signal", "obsValue": "49900 fluorescence intensity (a.u.)"}
{"sequenceInput": "TGGGTCCCTCCATGCTGAGTCAGCTTGTCAATCGGGTCAACGGAGTCACCTAGTGCAG", "recordedMetric": "binding signal", "obsValue": "21900 fluorescence intensity (a.u.)"}
{"sequenceInput": "ATGGGGAATCTGGCACCTTTGGCTACTGGTGATTCAGTGTCGGAGTCACCTAGTGCAG", "recordedMetric": "binding signal", "obsValue": "3510 fluorescence intensity (a.u.)"}
{"sequenceInput": "ACCATATGACTTATATATCTGTCGTCAGCTCATTTCTATGCGGAGTCACCTAGTGCAG", "recordedMetric": "binding signal", "obsValue": "7290 fluorescence intensity (a.u.)"}
{"sequenceInput": "TCAATGATATTTATGTGTGTGACATGTATGTCGAGTTCGTCGGAGTCACCTAGTGCAG", "recordedMetric": "binding signal", "obsValue": "4360 fluorescence intensity (a.u.)"}
{"sequenceInput": "AACATAATGTTTTAACTTAAACCTTAATAATGAAATTTCTCGGAGTCACCTAGTGCAG", "recordedMetric": "binding signal", "obsValue": "3670 fluorescence intensity (a.u.)"}
{"sequenceInput": "AATTATCATAAAACAACATATTTAAACCATGGTAACATAACGGAGTCACCTAGTGCAG", "recordedMetric": "binding signal", "obsValue": "6200 fluorescence intensity (a.u.)"}
